experiment: Caco-2 cell monolayer model assay (permeability); format: in vitro ADME; settings: human; Caco-2, 1 μM, 2 hours, pH 7.4
Measured quantity: Papp A→B at 2 h, 1 μM

For the compound CN(C(=O)c1ccc2nc(N)c3cncn3c2c1)[C@@H]1COc2cc(C(F)(F)F)ccc21 [Compound 12] , what Papp A→B at 2 h, 1 μM is on record?
6.07 ×10⁻⁶ cm/s

----------
test: in vitro; settings: dog, microsomes
Measured quantity: microsomal CLint at 1 μM

What does the data say about its microsomal CLint at 1 μM? Entry: "O=C(O)Cc1ccccc1Nc1c(Cl)cccc1Cl"
< 9.6 µL/min/mg

----------
assay: in vitro; settings: rat, microsomes
Measured quantity: half-life
I'd appreciate it if you wrote the number followed by its unit.

Which half-life is reported for this molecule? C[C@]12CC[C@H]3[C@@H](CCC4=CC(=O)CC[C@@]43C)[C@@H]1CC[C@@H]2O [Ref. 4, Testosterone, reference compound]
0.7 min

----------
assay: Hepatic metabolic stability (HMS) assay, human hepatocytes; conditions: human, cryopreserved hepatocytes
Measured quantity: half-life at 1 μM (min)
Number only, in min; omit the unit.

For "CN(C(=O)c1ccc2nc(N)c3cncn3c2c1)[C@@H]1COc2cc(C(F)(F)F)ccc21" , what is its reported half-life at 1 μM?
110

----------
assay: In vivo pharmacokinetics assay in mice via IV and PO; parameters: species or system ICR mice; conditions: male, ICR, mouse, plasma, PO 50 mg/kg
Measured quantity: half-life (h)
Quick note: give the figure in h, leave out the unit.

Look at this molecule and give its reported half-life. "CN(C(=O)c1cc2c(cn1)nc(N)c1cncn12)[C@@H]1COc2cc(C(F)(F)F)ccc21"
5

----------
test: Hepatic metabolic stability (HMS) assay, rat hepatocytes; details: rat, cryopreserved hepatocytes
Measured quantity: half-life at 3 μM (min)
Please state the figure in min; there is no need to write the unit.

Using the record for O=c1ccc2ccc(O)cc2o1 [Ref. 2, 7-Hydroxycoumarin, reference compound] , report its half-life at 3 μM.
2

----------
test: Hepatic metabolic stability (HMS) assay, rat hepatocytes; conditions: rat, cryopreserved hepatocytes
Measured quantity: CLint scaled at 3 μM (L/h/kg)
Expressed in L/h/kg, but write only the number.

Which CLint scaled at 3 μM reading was recorded for the compound O=c1ccc2ccc(O)cc2o1 [Ref. 2, 7-Hydroxycoumarin, reference compound] ?
190

----------
test: Hepatic metabolic stability (HMS) assay, dog hepatocytes; details: dog, cryopreserved hepatocytes
Measured quantity: half-life at 1 μM

Can you look up the measured half-life at 1 μM of CN(C(=O)c1ccc2nc(N)c3cncn3c2c1)[C@@H]1COc2cc(C(F)(F)F)ccc21 [Compound 12] for me?
2.12 h

----------
Assign Cl to each entry below.
assay: In vivo pharmacokinetics assay in mice via IV and PO; parameters: species or system ICR mice; settings: IV 1.0 mg/kg
Give the number; L/h/kg is assumed, so skip it.

Endpoint output: Cl of CN(C(=O)c1cc2c(cn1)nc(N)c1cncn12)[C@@H]1CC(F)(F)c2cc(C(F)(F)F)ccc21 [Compound 26] . Value?
0.63

I'd like to know its Cl. The molecule in question is CN(C(=O)c1cc2c(cn1)nc(N)c1cncn12)C1COc2cc(C(F)(F)F)ccc21 (centres unmarked) [Compound 21]
0.236

Fill blank: measured Cl of the molecule CN(C(=O)c1cc2c(cn1)nc(N)c1cncn12)C1COc2cc(C(F)(F)F)ccc21 (centres unmarked) [Compound 19] is ____.
0.263

Which Cl reading was recorded for the molecule CN(C(=O)c1cc2c(cn1)nc(N)c1cncn12)C1CC(F)(F)c2cc(C(F)(F)F)ccc21 (centres unmarked) [Compound 24] ?
0.145

So what's the measured Cl for this one? CN(C(=O)c1ccc2nc(N)c3cncn3c2c1)C1COc2cc(C(F)(F)F)ccc21 (centres unmarked) [Compound 17]
0.186

----------
assay: In vivo pharmacokinetics assay in mice via IV and PO; design: species or system ICR mice; details: PO 10 mg/kg, plasma
What C8 h was measured for each of the following?
# number only, unit µg/mL dropped from output

What value of C8 h has been recorded for this entry: CN(C(=O)c1cc2c(cn1)nc(N)c1cncn12)C1COc2cc(C(F)(F)F)ccc21 (stereo not shown) [Compound 19]
1.833

For CN(C(=O)c1ccc2nc(N)c3cncn3c2c1)C1COc2cc(C(F)(F)F)ccc21 (stereo not shown) , what is its reported C8 h?
2.287

Query: C8 h; subject: CN(C(=O)c1cc2c(cn1)nc(N)c1cncn12)C1COc2cc(C(F)(F)F)ccc21 (stereo not shown) [Compound 21]
2.537

Would you kindly share the measured C8 h for CN(C(=O)c1cc2c(cn1)nc(N)c1cncn12)C1CC(F)(F)c2cc(C(F)(F)F)ccc21 (stereo not shown) ?
2.598

----------
test: Caco-2 cell monolayer model assay (permeability); assay type: in vitro ADME; details: human; Caco-2, 1 μM, 2 hours, pH 7.4
Measured quantity: Papp B→A at 2 h, 1 μM (×10⁻⁶ cm/s)
// return numeric value only (unit: ×10⁻⁶ cm/s, not printed)

Query: Papp B→A at 2 h, 1 μM; subject: "CN(C(=O)c1ccc2nc(N)c3cncn3c2c1)[C@@H]1COc2cc(C(F)(F)F)ccc21"
12

----------
biological target: PRMT5/MEP50 (Homo sapiens (Human), UniProt O14744); experiment: MTase-Glo methyl transferase assay (PRMT5 inhibition); type: biochemical; details: 50 nM PRMT5/MEP50, 25 μM SAM, 5 μM Histone H4 peptide (1-21), read-out: IC50 for PRMT5 inhibiting
Sequence (O14744 whole entry): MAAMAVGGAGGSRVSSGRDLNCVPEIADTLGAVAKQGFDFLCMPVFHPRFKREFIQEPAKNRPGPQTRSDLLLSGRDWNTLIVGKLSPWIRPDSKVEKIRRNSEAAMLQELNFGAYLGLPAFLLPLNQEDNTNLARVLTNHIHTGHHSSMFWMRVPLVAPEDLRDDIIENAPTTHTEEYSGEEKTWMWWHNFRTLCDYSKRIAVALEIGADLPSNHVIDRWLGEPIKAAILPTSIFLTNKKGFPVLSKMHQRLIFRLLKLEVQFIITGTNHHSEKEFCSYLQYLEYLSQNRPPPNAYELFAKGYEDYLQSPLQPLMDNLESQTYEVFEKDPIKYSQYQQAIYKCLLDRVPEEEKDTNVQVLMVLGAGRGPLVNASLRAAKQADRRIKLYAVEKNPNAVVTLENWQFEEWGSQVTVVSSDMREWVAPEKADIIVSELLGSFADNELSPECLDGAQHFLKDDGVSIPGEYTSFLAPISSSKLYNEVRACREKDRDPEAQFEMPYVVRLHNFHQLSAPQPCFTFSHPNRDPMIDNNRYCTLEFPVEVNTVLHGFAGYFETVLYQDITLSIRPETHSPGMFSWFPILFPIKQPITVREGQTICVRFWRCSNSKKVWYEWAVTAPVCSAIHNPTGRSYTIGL
Sequence (Q9BQA1 whole entry partner): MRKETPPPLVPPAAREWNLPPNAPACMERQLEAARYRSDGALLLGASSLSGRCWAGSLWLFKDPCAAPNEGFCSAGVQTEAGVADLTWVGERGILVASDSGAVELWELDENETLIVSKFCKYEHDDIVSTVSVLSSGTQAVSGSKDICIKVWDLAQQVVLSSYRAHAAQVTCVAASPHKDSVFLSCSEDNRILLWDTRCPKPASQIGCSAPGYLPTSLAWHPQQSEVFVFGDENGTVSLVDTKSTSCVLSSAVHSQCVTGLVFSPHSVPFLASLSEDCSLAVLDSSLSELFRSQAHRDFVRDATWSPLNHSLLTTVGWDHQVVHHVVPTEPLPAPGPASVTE
Measured quantity: IC50 (nM)
# output: bare number, implied unit nM

Form field: IC50 recorded for CN(C(=O)c1cc2c(cn1)nc(N)c1cncn12)C1COc2cc(C(F)(F)F)ccc21 (stereo not shown) [Compound 19] with PRMT5/MEP50 (Homo sapiens (Human), UniProt O14744) (enter value)
25

Form field: IC50 recorded for "C[C@H](c1ncccn1)N(Cc1ccc(C(F)(F)F)cn1)C(=O)c1cc2c(cc1F)nc(N)c1cncn12" with PRMT5/MEP50 (Homo sapiens (Human), UniProt O14744) (enter value)
36

Test system PRMT5/MEP50 (Homo sapiens (Human), UniProt O14744); read-out IC50; what value for [2H]C([2H])([2H])N(C(=O)c1cc2c(cn1)nc(N)c1cncn12)C1COc2cc(C(F)(F)F)cc(F)c21 (stereo not shown) ?
53

Notebook: pull reported IC50 for PRMT5/MEP50 (Homo sapiens (Human), UniProt O14744), entry "C[C@H]1CC[C@H](c2ccc3c(c2)CCC(=O)N3)N(C(=O)c2ccc3nc(N)c4cncn4c3c2)C1"
28

----------
target: hERG potassium ion channel (Homo sapiens (Human)); assay: hERG potassium ion channel inhibition assay (automated patch-clamp, CHO-hERG cells); type: cell-based; details: Qpatch, highest test concentration 40.00 μM
Sequence (Q12809 whole entry): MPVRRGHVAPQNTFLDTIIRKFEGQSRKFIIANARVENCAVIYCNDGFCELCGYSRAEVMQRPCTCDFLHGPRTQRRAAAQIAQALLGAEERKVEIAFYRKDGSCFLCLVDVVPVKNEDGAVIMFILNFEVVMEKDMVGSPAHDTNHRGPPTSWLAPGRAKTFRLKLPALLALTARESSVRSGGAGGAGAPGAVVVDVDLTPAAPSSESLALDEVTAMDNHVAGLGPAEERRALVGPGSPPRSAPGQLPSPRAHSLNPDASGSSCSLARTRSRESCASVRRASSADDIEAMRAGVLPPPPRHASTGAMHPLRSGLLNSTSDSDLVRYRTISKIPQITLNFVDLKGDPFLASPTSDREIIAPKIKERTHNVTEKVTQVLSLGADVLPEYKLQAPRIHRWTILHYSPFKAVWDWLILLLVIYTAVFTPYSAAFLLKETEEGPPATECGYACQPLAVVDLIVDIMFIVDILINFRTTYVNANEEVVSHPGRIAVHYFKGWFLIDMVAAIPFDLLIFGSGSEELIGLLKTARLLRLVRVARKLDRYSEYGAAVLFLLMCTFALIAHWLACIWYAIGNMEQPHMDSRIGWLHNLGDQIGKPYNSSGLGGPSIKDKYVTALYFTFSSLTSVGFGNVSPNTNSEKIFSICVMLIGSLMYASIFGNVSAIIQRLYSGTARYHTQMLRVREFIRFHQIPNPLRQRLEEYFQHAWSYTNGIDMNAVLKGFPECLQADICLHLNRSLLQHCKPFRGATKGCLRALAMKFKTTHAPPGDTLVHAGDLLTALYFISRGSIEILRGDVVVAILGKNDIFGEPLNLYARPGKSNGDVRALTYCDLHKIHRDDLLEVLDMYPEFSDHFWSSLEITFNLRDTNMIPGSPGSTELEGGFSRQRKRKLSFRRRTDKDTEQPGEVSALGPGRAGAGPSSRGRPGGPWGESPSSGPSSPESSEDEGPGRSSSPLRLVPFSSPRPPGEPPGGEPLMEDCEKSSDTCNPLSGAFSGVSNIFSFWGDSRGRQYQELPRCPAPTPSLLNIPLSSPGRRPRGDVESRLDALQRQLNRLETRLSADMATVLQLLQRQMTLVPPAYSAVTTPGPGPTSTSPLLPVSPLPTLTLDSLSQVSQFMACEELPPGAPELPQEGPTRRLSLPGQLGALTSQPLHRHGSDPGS
pIC50: −log10 of the molar value.
We use 5 as the dividing line for pIC50: on or above the line is Condition met, below is Condition not met.

Quick check: does "CN(C(=O)c1ccc2nc(N)c3cncn3c2c1)[C@@H]1COc2cc(C(F)(F)F)ccc21" have pIC50 greater than or equal to 5?
Condition met

Answer whether pIC50 of CN(C(=O)c1cc2c(cn1)nc(N)c1cncn12)C1CC(F)(F)c2cc(C(F)(F)F)ccc21 (centres unmarked) is greater than or equal to 5.
Condition not met

State whether the measured pIC50 reaches 5, counting equality as reaching it, for CN(C(=O)c1ccc2nc(N)c3cncn3c2c1)C1COc2cc(C(F)(F)F)ccc21 (centres unmarked) [Compound 15]
Condition met

Assess whether reported pIC50 for "CN(C(=O)c1cc2c(cn1)nc(N)c1cncn12)[C@@H]1COc2cc(C(F)(F)F)ccc21" sits at 5 or higher.
Condition not met

----------
test: Liver microsome metabolic stability (LMS) assay, dog; conditions: dog, microsomes
Measured quantity: CLint scaled at 1 μM (mL/min/kg)
Please state the figure in mL/min/kg; there is no need to write the unit.

Give its CLint scaled at 1 μM value. Item: C[C@]12CC[C@H]3[C@@H](CCC4=CC(=O)CC[C@@]43C)[C@@H]1CC[C@@H]2O [Ref. 4, Testosterone, reference compound]
58.7

----------
test: Liver microsome metabolic stability (LMS) assay, dog; conditions: dog, microsomes
Measured quantity: microsomal CLint at 1 μM (µL/min/mg)
Your answer is read as µL/min/mg, so omit the unit and give the number.

Any idea what microsomal CLint at 1 μM was measured for C[C@]12CC[C@H]3[C@@H](CCC4=CC(=O)CC[C@@]43C)[C@@H]1CC[C@@H]2O [Ref. 4, Testosterone, reference compound] ?
40.8

----------
settings: human, microsomes
Answer each item with its documented T1/2 of LMS, H.

Entry CN(C(=O)c1cc2c(cn1)nc(N)c1cncn12)[C@@H]1CC(F)(F)c2cc(C(F)(F)F)ccc21 [Compound 26] has what T1/2 of LMS, H?
2.32 h

Tell me the measured T1/2 of LMS, H of CN(C(=O)c1cc2c(cn1)nc(N)c1cncn12)C1COc2cc(C(F)(F)F)ccc21 (stereo not shown) [Compound 19] , please.
>2.42 h

Would you kindly share the measured T1/2 of LMS, H for CN(C(=O)c1ccc2nc(N)c3cncn3c2c1)C1COc2cc(C(F)(F)F)ccc21 (stereo not shown) [Compound 17] ?
>2.42 h

Bench note: what T1/2 of LMS, H did CN(C(=O)c1cc2c(cn1)nc(N)c1cncn12)C1COc2cc(C(F)(F)F)ccc21 (stereo not shown) [Compound 21] show?
>2.42 h

Cited source: patent US20240262835A1
